Source listed as the nanobody polyreactivity screen of Harvey et al. (2022).

# test.details: yeast display, Sf9 membrane polyspecificity reagent, FACS + sequencing; frameworks hold sequencing errors
metric.name: polyreactivity (PSR sort gate)

* QVQLVESGGGLDQAGGSLRLSCAASGSTFDYYARGWYRQAPGKERELVAAISSSGGSTYYADSVKGRFTISRDNANYTVYLQRNSLKPEDTAVYYCNKYGGTLRSDYWGQGTQVTVSS | high polyreactivity
* QVQLVESGGGLVQEGGSLRLICAASGSTFGVNAMGWYRQAPGKERELVAAISSSGYSTYADSVKGRFTISRDNAKNTVYLQMNSLKPEDTAVYYCNKTTLLTVEYDYWGQGTQVTVSS | low polyreactivity
* QVQLVESGGGLVQAGGSLRLSCAASGRTFKINAMGWYRQAPGKERELVAAIRRRGGSTYYADSVKGRFTISRDNAKNTVYLQMNSLKPEDTAVYYCAKTSWPYRVPSDSVAYDYWGQGTQVTVSS | low polyreactivity
* QVQLVESGGGLVQAGGSLRLSCAASGFTFSWYAMGRYRQAPGKERELVAAISSAGNTNYADSVKGRFTISRDNAKNTVYLQMNSLKPEDTAVYYCAKRDYWGQGTQVTVSS | high polyreactivity
* QVQLVESGGGIVQARGSLRLSSAASGNIFRINGMGWSRQERGKERELVASITRSGSTYYADSVKGRFTISRDNAKNTVYLQMNILKPEDTAVYYCAADSSSYGVRFDYWGQGTQVTVSS | low polyreactivity

----------
# test.details: yeast display, Sf9 membrane polyspecificity reagent, FACS + sequencing; frameworks hold sequencing errors
metric.name: polyreactivity (PSR sort gate)

* QVQLVESGGGLVQAGGSLSLSCAASGGIFAANAMGWYRQAPGKERELVAAITRRGGSTTYADSVKGRFTISRDNAKNTVYLQMNRLKREDTAVYYCNTVYYRFYIELYFSSYDYWGQGTQVTVSS | high polyreactivity
* QVQLVESGGGLVQAGGSLRLSCAASGRILSLYAMGWYRPPPGKERELVAAIRWSGSRTYYADSVKGRFTISRDNAKNTVYLQMNSLKPEDTAVYYCNAWYRLLRSSDYYWGQGTQVTVSS | high polyreactivity
* QVQLVESGGGLVQAGGSLRLSCAASGLTFYQYAMGWYRQAPGKERELVAGITSGGSTKYADSVKGRFTISRDNAKNTVYLQMNSLKPEDTAVYYCAARFYAFRKGYYYWGQGTQVTVSS | high polyreactivity
* QVQLVESGGGLVQAGGSLRLSCAASGIIFDGNAMGWYRQAPGKERELVAAISSRGSRTYYADSVKGRFTISRDHAKNTVYLQMNSLKPEDTAVYYCNAGYGFRSYGYDPWGQGTQVTVSS | high polyreactivity

----------
# test.details: yeast display, Sf9 membrane polyspecificity reagent, FACS + sequencing; frameworks hold sequencing errors
metric.name: polyreactivity (PSR sort gate)

- QVQLVESGGVLVQAGGSLRLSCAASGITFEYYAMGWYRQAPGKERELVAAISWSGSSTYYADSVKGRFTISRDNAKNTVYLQMNSLKPEDTAVYYCNADSAWWASDDQYDYWGQGTQVTVSS: low polyreactivity
- QVQLVESGGGLVQAGGSLRLSCAASGNTFDVYAMGWYRQAPGKEREFVARISGRVGSTYYADSVKGRFTISRDNAKNTVYLQMNSLKPEDTAVYYCAARGRVKYVYGGFGYWGQGTQVTVSS: high polyreactivity
- QVQLVESGGGLVQAGGSLRLSCAASGCTRWYAMGWYRQAPGKERELVAAINGRGVSTYYAVSVKGRFRISRDNAKHTVYLQMNSLKQADTAVYYCAAYAYYDRYRRYDYWGQGTQVTVST: low polyreactivity
- QVQLVESGGGLFQAGGSLRLSCAASGRTFGKNAMGWYRQAPGKEREFVAAITSRGGSTYYADSVKGRFTISRDNAKNTVYLQMNSLNPEDTGVYYCNREYKRPSQRNEHFYCGQGTQVTVSS: low polyreactivity
- QVQLVESGGGLVQAGGSLRLSCAASGSIFLYYAMGWYRQAPGKERELVAGINRVGSTNYADSVKGRFTISRDNAKNTVYLQMNSLKPEDTAVYYCNKRGTRSRRRGYWGQGTQVTVSS: low polyreactivity
- QVQLVESGGGLVQAGGSLRLSCAASGLIIKWYAMGWYRQAPGKERELVAAITRTGGSTYYADSVKGRFTISRDNAKNTVYLQMNSLKPEDTAVYYCADRPVYFRYIAYYDWTPSFDFWGQGTQVTVSS: low polyreactivity
- QVQLVESVGGLVQAGGSLRLTCAASGFTFDKYAMGWYRQAPGKERELVAAISNSGGRTYYADSVKGRFTISRDNAKNTVYLQMNSLKPEDTAVYYCAAVALTRRYDYWGQGTQVTVSS: high polyreactivity
- QVQLVESWGGLVQAGGSLRISCAASGNIFRYAMGWYRQAPGKERELVAAITYRGSTTYYADSVKGRFTISCDNAKNTVYLQMISLKPEDTAVYYCAARASYTRRHVGRPYDYWGQGTQVSVSS: high polyreactivity
- QVQLVESGGGLVQAGGSLRLSCAASGRIYIIYAMGWYRQAPRKEREMVAAITRSGGRTFYADSVKGRFTISRDNAKNTVYLQMNSLKPEDTAVYYCAAAFGRVTKYGYRNQYGYWGQGTQVTVSS: high polyreactivity
- QVQLVESGGGLVQAGGSLRLSCAASGRTVYRYAMGWYRQAPGKERELVAAITGSGSSTYYADSVKGRFTISRDNAKNTVYLQMNSLKPEDTAVYYCAAARPRLGSAGKFGYWGQGTQVTVSS: high polyreactivity
- QVQLVESGGGLVQAGGSLRLSCAASGLIFGSYVMGWYSQAPGKERELVAAISTSGGRTYYADSVKGRFTISRDNATNTVYLQMNSLKPEDTAVYFCAASRWHGYNYWGQGTQVTVSS: high polyreactivity
- QVQLVESGGGLVQAGGRLRLSCAASGSIFSHNVMGWYRQAPGKEGELVAAITYRGGSTYYADSVKGRFTISRDNAKNTVYLQMNSLKPEDTAVYYCSALNEVSTYHGFDYWGQGTQVTVSS: low polyreactivity
- QVQLVESGGRLVQAGRSLRLSCAASGFTFYDYAMVWYRQEPGKERELVARINGGGGTNYADSVKGRFTNSRDNAKNTVYLQMNSLKPEDTAVYYCAAEFGSRPPYDYWGQGTQVTVSS: low polyreactivity
- QVQLVESGGGLVQAGGSLRLSCAASGFTFRWYTMGWYRQAPGKEREFVAAISSSGGSTYYADSVKGRFTISRDNAKNTVYLQMKSLKPEDTAVYYCARASRGYTYEYWGQGTQVTVSS: high polyreactivity
- QVQLVESGGGLVQAGGSLRLSCAASGLTFSLYAMGWYRQAHGKERELVAAISWTGGSTYYADSVKGRFTISRDNAKNTVYLQMNSLKPEDTAVYYCNARYTLFARYGYDYWGQGTQVTVSS: low polyreactivity
- QVQLVESGGGLVQAGGSLRLSCSASGFTFRYYTMGWYRQAPGKERELVAAISRSSGSRTYYADSVKGRFTISRDNAKNTVYLQMNSLKPEDTAVYYCNADPAYQFDYWGQGTQVTVSS: high polyreactivity
- QVQLVESGGGLVQAGGSLRLSCAASGFTLYYYTMGWYRQAPGKERELVAAITSGGDTYYADSVKGRFTISRDNAKNTVYLQMNSLKPEDTAVYYCAAVDDDYSIVWYDYWGQGTQVTVSS: low polyreactivity
- QVQLVESGGGLVQAGGSLRLSCAASGLTFHYYDMGWYRQAPGKERELVAAISTGGGTYYADSVKGRFTISRDNAKNTVYLQMNSLKPEDTAVYYCAAETQHSYFVFSYYWGQGTQVTVSS: high polyreactivity
- QVQLVESGGGLVQAGGSLRLSCAASGRTFAPYAMGWYRQAPGKERELVAGITYRTGNTYYADSVKGRFTISRDNAKNTVYLQMNSLKPEDTAVYYCAAYSGYYRPRYNYWGQGTQVTVSS: high polyreactivity
- QVQLVESGGGLVQAGGSLRLSCAASGFIFARNTMGWYRQAPGKERELVAAITKSGGSTYYADSVKGRFTISRDNAKNTVYLQMNSPKPEDTSVYYCAARSWWLRGIYGFDSWGQGTQVTVSS: low polyreactivity
- QVQLVESGGGLVQAGGSLRLSCAASGITLWQYAMGWYRQAPGKERELVAGITDTGDSTYYADSVKGRFTISRDNAKNTVYLQMNSLKPEDTAVYYCAVPRSALLRAPYELYSWGQGTQVTVSS: low polyreactivity
